target: T1, recombinant human PDGF-CC active core domain protein with terminal histidine tag (human, UniProt Q9NRA1 231-345); assay: SPR, BIAcore 2000, His-tagged PDGF-CC on Ni-NTA chip, antibody as analyte, 1:1 Langmuir fit (apparent)
T1 construct: Made in baculovirus-infected Sf9 cells; The position of the tag in the chain is not known; also called RhPC; RhPCc; not shown: terminal histidine tag
T1 sequence (Q9NRA1 231-345 limits assumed): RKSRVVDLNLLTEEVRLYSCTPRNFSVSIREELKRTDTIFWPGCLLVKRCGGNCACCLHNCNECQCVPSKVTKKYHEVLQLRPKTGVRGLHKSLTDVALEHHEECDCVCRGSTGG
Recorded metric: Kd

Ask | Returns the measured Kd for the input binder. Input: monoclonal antibody 12F5 (antibody, mouse IgG2a, V domains shown, Murine IgG2a, kappa light chain; also called anti-PDGF-CC mAb 12F5) VH: EVKLEESGGGLVQPGGSRELSCEGSGFTFSGFWMSWVRQTPGKTLEWIGDINSDGSAIIYAPSIKDRFTIFRDNDKSTLYLQMNNVRSEDTATYFCMRWGYYGSNYFDYWGQGTTLTVSS VL: DVVMTQTPLSLPVSLGDQASISCRSSQSIVHSNGNTYLHWYLQKPGQSPKLLIYRVSNRFSGVPDRFSGSGSGTDFTLKISRVEAEDMGVYYCFQGTHVPFTFGSGTKLEIKR
Reply | 2.2 nM
